Attribution: patent US20210070843A1

target: full-length H5 A/Vietnam/1203/2004 HA expressed on 293T cells (influenza A virus A/Vietnam/1203/2004 (H5N1)); experiment: flow cytometry, HA-expressing 293T
max. MFI by entry:

binder	max. MFI, MFI
S10 (antibody, V domains shown) VH: EVQLVESGGGLVQPGGSLRLSCAASGFTIGGYGIHWVRQAPGKGLEWVASIGPSWGFTFYADSVKGRFTISADTSKNTAYLQMNSLRAEDTAVYYCARFNWVINGVTDYWGQGTLVTVSS VL: DIQMTQSPSSLSASVGDRVTITCRASQDVSYYVAWYQQKPGKAPKLLIFWSTFLYSGVPSRFSGSGSGTDFTLTISSLQPEDFATYYCQQYYDSPMTFGQGTKVEIKR	1100
P28 (antibody, V domains shown) VH: EVQLVESGGGLVQPGGSLRLSCAASGFTINNSGIHWVRQAPGKGLEWVASIWPSGGYTYYADSVKGRFTISADTSKNTAYLQMNSLRAEDTAVYYCARFNSSYSSGLMDYWGQGTLVTVSS VL: DIQMTQSPSSLSASVGDRVTITCRASQDVWYSVAWYQQKPGKAPKLLIYFATGLYSGVPSRFSGSGSGTDFTLTISSLQPEDFATYYCQQYFNWPVTFGQGTKVEIKR	193
C05 (antibody, V domains shown) VH: PVQLQESGGGLVQPGESLRLSCVGSGSSFGESTLSYYAVSWVRQAPGKGLEWLSIINAGGGDIDYADSVEGRFTISRDNSKETLYLQMTNLRVEDTGVYYCAKHMSMQQVVSAGWERADLVGDAFDVWGQGTMVTVSS VL: DIQLTQSPSSLSASVGDRVTLTCQASQDIRKFLNWYQQKPGKGPKLLIYDASNLQRGVPSRFSGGGSGTDFTLIISSLQPEDVGTYYCQQYDGLPFTFGGGTKVEIKR	547
